Values were extracted from patent US20240270701A1.

Items are presented alongside their recorded EC50.
tested on: B1-AR (Homo sapiens, UniProt P08588)
Construct: expressed in transfected cells; host or cells: CHO-K1
Sequence (P08588 whole entry, species assumed): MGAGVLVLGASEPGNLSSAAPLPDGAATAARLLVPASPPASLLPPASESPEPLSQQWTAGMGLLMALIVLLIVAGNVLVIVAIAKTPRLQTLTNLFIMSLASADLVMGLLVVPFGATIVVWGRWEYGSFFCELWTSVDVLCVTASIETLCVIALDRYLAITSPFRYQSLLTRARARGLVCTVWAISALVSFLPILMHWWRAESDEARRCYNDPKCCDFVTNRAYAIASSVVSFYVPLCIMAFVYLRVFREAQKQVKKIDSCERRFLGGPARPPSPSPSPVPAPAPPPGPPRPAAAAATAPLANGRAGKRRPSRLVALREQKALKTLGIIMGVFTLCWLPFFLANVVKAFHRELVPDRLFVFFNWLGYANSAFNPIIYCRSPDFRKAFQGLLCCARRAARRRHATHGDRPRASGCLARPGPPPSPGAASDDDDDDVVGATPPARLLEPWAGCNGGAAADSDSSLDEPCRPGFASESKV
assay method text: cAMP Gs dynamic HTRF assay, cells expressing beta-adrenergic receptor (CHO-K1), B1-AR
Assay type: cell-based
condition set: cAMP HTRF, read-out: pEC50 [B1-AR] (converted)

Take a look at these entries with their results.
>  <compound>
C[C@@H](NC[C@H](O)c1ccc(F)c2[nH]ncc12)C(C)(C)C [I-16]

>  <EC50>
10 to 100 nM

$$$$
>  <compound>
O[C@@H](CNC1CC1)c1cccc2[nH]nc(Cl)c12 [I-98]

>  <EC50>
10 to 100 nM

$$$$
>  <compound>
CCC(C)(C)NC[C@H](O)c1cccc2[nH]cc(F)c12 [I-46]

>  <EC50>
< 10 nM

$$$$

Q) Missing value: EC50, B1-AR (Homo sapiens, UniProt P08588), entry CC(C)(CO)NC[C@H](O)c1cccc2[nH]nc(F)c12 [I-132] . Fill in?
A) < 10 nM

Q) And COc1cc([C@@H](O)CNC(C)(C)C)c2cn[nH]c2c1F [I-59] ?
A) 100 to 1000 nM

###

tested on: B2-AR (Homo sapiens, UniProt P07550)
Construct: expressed in transfected cells; host or cells: CHO-K1
Sequence (P07550 whole entry, species assumed): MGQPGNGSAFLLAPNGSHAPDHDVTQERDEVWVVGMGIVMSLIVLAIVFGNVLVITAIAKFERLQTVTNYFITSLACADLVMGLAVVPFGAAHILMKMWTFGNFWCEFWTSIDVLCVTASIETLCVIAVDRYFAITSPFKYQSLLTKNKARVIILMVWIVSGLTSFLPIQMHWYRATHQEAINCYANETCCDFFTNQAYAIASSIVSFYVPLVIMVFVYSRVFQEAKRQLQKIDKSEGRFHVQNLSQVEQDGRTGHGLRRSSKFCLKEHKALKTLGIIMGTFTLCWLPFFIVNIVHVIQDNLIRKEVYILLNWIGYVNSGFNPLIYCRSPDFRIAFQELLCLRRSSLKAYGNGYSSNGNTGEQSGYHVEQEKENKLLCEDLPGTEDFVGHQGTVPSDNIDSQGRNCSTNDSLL
assay method text: cAMP Gs dynamic HTRF assay, cells expressing beta-adrenergic receptor (CHO-K1), B2-AR
Type: cell-based
condition set: CHO-K1 cells, cAMP HTRF; read-out: pEC50 [B2-AR] (converted)
Items are presented alongside their recorded EC50.

>  <molecule smiles>
Cc1ncccc1[C@@H](O)CNC1CC(C)(C)C1

>  <recorded metric>
EC50

>  <result>
> 1000 nM

$$$$

Q) Dear colleague, I am looking for the recorded EC50 of the following molecule: `O[C@@H](CNC1CCC1)c1cccc2[nH]ncc12`
A) < 10 nM

Q) And `CC(C)NC[C@H](O)c1cccc2[nH]nc(F)c12` ?
A) < 10 nM

###

tested on: B1-AR (Homo sapiens, UniProt P08588)
Construct: expressed in transfected cells; host or cells: CHO-K1
assay method text: cAMP Gs dynamic HTRF assay, cells expressing beta-adrenergic receptor (CHO-K1), B1-AR
Format: cell-based
condition set: cAMP HTRF, read-out: pEC50 [B1-AR] (converted)
recorded metric: EC50

>  <compound>
Cc1nc(N)ccc1[C@@H](O)CNC1(C)CCC1 [I-154]

>  <recorded metric>
EC50

>  <result>
100 to 1000 nM

$$$$

Q) Dear colleague, I am looking for the recorded EC50 of the following compound: CC1(NC[C@H](O)c2cccc3[nH]cc(F)c23)CC1 [I-107]
A) < 10 nM

Q) And CC(C)CNC[C@H](O)c1ccc2[nH]cc(F)c2c1 [I-124] ?
A) > 1000 nM

Q) And Cc1cnc2ccc([C@@H](O)CNC(C)(C)C)cc2c1 [I-73] ?
A) > 1000 nM

Q) And Cc1nc(N)c(F)cc1[C@H](CO)NC(C)(C)C [I-180] ?
A) > 1000 nM

###

tested on: B1-AR (Homo sapiens)
Construct: expressed in transfected cells; host or cells: CHO-K1
assay method text: cAMP Gs dynamic HTRF assay, cells expressing beta-adrenergic receptor (CHO-K1), B1-AR
Format: cell-based
condition set: relative to full agonist isoproterenol, read-out: Emax (% iso) (%) [B1-AR]
Method: cAMP homogeneous time-resolved fluorescence (HTRF): experimental methods. Compound efficacy is determined using the cAMP Gs dynamic HTRF assay (Cisbio, catalog #62AM4PEC) largely following the manufacturer's instructions, also detailed below. Standard serial dilution curves are 10-point, 5-fold dilutions starting from a highest concentration of 10 μM. […]
recorded metric: Emax

>  <molecule>
CC(C)NC[C@H](O)c1cccc2[nH]cc(F)c12 [I-112]

>  <Emax>
> 90%

$$$$
>  <molecule>
Cc1nc(N)c(F)cc1[C@@H](CO)NC(C)(C)C [I-179]

>  <Emax>
< 50%

$$$$

Q) Dear colleague, I am looking for the recorded Emax of the following molecule: Cc1n[nH]c2cccc([C@@H](O)CNC3CCC3)c12 [I-166]
A) 50 to 70%
